- System: LoVo
- Measurement Notes: cells
- Condition Parameters: read-out: LOVO LC50; LOVO; SRB, 48 hours exposure
Value Type: CC50 (µM)
Answers are plain numbers, in µM.

Record COC1=C(C)C(=O)C2=C(C1=O)C1C3C4SCC(NC(C)=O)C(=O)OCC(c5c6c(c(C)c(OC(C)=O)c54)OCO6)N3C(O)C(C2)N1C (stereo not shown) [ET-637-quinone, ecteinascidin 637 quinone] , field CC50: 6.08

====

- System: LNCaP
- Measurement Notes: Inhibition of cells growth by colorimetric assay (SRB)
- Condition Parameters: Homo sapiens, LNCaP, 48 h, read-out: LNCAP GI50
Consider the following compounds; for each one, report its GI50.
Answers are plain numbers, in nM.

Compound	Units Text	GI50
COC1=C(C)C(=O)C2=C(C1=O)[C@@H]1C3[C@@H]4SC[C@]5(NCCc6c5[nH]c5ccccc65)C(=O)OC[C@@H](c5c6c(c(C)c(OC(C)=O)c54)OCO6)N3[C@@H](O)[C@H](C2)N1C (stereo partly drawn) [ET-736-quinone]	nM	24.8
COc1c(C)cc2c(c1O)[C@H]1N[C@@H](C2)[C@H](O)N2C1[C@@H]1SC[C@]3(NCCc4c3[nH]c3ccc(C)cc43)C(=O)OC[C@H]2c2c3c(c(C)c(OC(C)=O)c21)OCO3 (stereo partly drawn) [compound 66]	nM	1.99

Consider the additional compound presented here.
Record CCCCCCCC(=O)Oc1c(C)c2c(c3c1[C@H]1SC[C@]4(NCCc5cc(O)c(OC)cc54)C(=O)OC[C@@H]3N3C1[C@@H]1N[C@@H](Cc4cc(C)c(OC)c(O)c41)[C@@H]3C#N)OCO2 (stereo partly drawn) [compound 52] , field GI50: 2.39

====

- Test system: SK-MEL-28
- Measurement Notes: Inhibition of cells growth by colorimetric assay (SRB)
- Condition Parameters: Homo sapiens, SK-MEL-28, 48 h, read-out: GI50 MEL-28
- Procedure: This form of the assay employs 96 well cell culture microplates of 9 mm diameter (Faircloth, 1988; Mosmann, 1983). Most of the cell lines are obtained from American Type Culture Collection (ATCC) derived from different human cancer types. […] The values for mean +/− SD of data from triplicate wells are calculated. Some parameters for cellular responses can be calculated: GI=growth inhibition, TGI=total growth inhibition (cytostatic effect) and LC=cell killing (cytotoxic effect).
Consider the following molecules; for each one, report its GI50.
Numbers only, in nM.

Molecule	System Under Test	GI50, nM
COc1c(C)cc2c(c1O)[C@H]1N[C@@H](C2)[C@H](O)N2C1[C@@H]1SCC(NC(C)=O)C(=O)OC[C@H]2c2c3c(c(C)c(OC(C)=O)c21)OCO3 (stereo partly drawn)	SK-MEL-28	1.84
C=CCN1[C@@H]2c3c(cc(C)c(OC)c3O)C[C@H]1[C@H](C#N)N1C2[C@@H]2SCC(N)C(=O)OC[C@H]1c1c3c(c(C)c(OC(C)=O)c12)OCO3 (stereo partly drawn)	SK-MEL-28	350
C=CCOc1c(C)c2c(c3c1CC1[C@H]4c5c(cc(C)c(OC)c5O)C[C@@H]([C@H](C#N)N1[C@H]3CO)N4C)OCO2 (stereo partly drawn)	SK-MEL-28	598
C=CCN1[C@@H]2c3c(cc(C)c(OC)c3OC(=O)/C=C/c3ccccc3)C[C@H]1[C@H](C#N)N1C2[C@@H]2SCC(NC(=O)C(F)(F)F)C(=O)OC[C@H]1c1c3c(c(C)c(OC(C)=O)c12)OCO3 (stereo partly drawn)	SK-MEL-28	3740
COc1c(C)cc2c(c1O)[C@H]1N[C@@H](C2)[C@H](C#N)N2C1[C@@H]1SCC(NC(=O)C(F)(F)F)C(=O)OC[C@H]2c2c3c(c(C)c(OC(C)=O)c21)OCO3 (stereo partly drawn)	SK-MEL-28	0.832

Consider the additional molecule presented here.
Record C=CCN1[C@@H]2c3c(cc(C)c(OC)c3O)C[C@H]1[C@H](C#N)N1C2[C@@H]2SC[C@H](NC(=O)c3cc4ccccc4oc3=O)C(=O)OC[C@H]1c1c3c(c(C)c(OC(C)=O)c12)OCO3 (stereo partly drawn) , field GI50: 56.8

====

- Test system: HeLa-APL
- Measurement Notes: Inhibition of cells growth by colorimetric assay (SRB)
- Condition Parameters: Homo sapiens, 48 h, read-out: GI50 HELA-APL
Value Type: GI50 (nM)
Answers are plain numbers, in nM.

Recorded GI50, per entry:
Molecule	Value Type	Units Text	Experimental Result
C=CCOc1c(C)c2c(c3c1CC1[C@H]4c5c(cc(C)c(OC)c5O)C[C@@H]([C@H](C#N)N1[C@H]3CO)N4C)OCO2 (some centres unmarked)	GI50	nM	479
C=CCN1[C@@H]2c3c(cc(C)c(OC)c3O)C[C@H]1[C@H](C#N)N1C2[C@@H]2SCC(NC(=O)C(F)(F)F)C(=O)OC[C@H]1c1c3c(c(C)c(OC(C)=O)c12)OCO3 (some centres unmarked)	GI50	nM	939

Can you give me GI50 for all of these, one by one?
1. C=CCN1[C@@H]2c3c(cc(C)c(OC)c3OC(=O)/C=C/c3ccccc3)C[C@H]1[C@H](C#N)N1C2[C@@H]2SCC(NC(=O)C(F)(F)F)C(=O)OC[C@H]1c1c3c(c(C)c(OC(C)=O)c12)OCO3 (some centres unmarked)
2. C=CCN1[C@@H]2c3c(cc(C)c(OC)c3O)C[C@H]1[C@H](C#N)N1C2[C@@H]2SCC(N)C(=O)OC[C@H]1c1c3c(c(C)c(OC(C)=O)c12)OCO3 (some centres unmarked)
3. COc1c(C)cc2c(c1O)[C@@H]1C3[C@@H]4SC[C@]5(NCCc6c5[nH]c5ccccc65)C(=O)OC[C@@H](c5c6c(c(C)c(OC(C)=O)c54)OCO6)N3[C@@H](C#N)[C@H](C2)N1C (some centres unmarked)

Output line:
1: 4290; 2: 244; 3: 21.1

====

- Test system: HMEC1
- Measurement Notes: Inhibition of cells growth by colorimetric assay (SRB)
- Condition Parameters: Homo sapiens, HMEC-1, 48 h, read-out: GI50 H-MEC-1
- Protocol: This form of the assay employs 96 well cell culture microplates of 9 mm diameter (Faircloth, 1988; Mosmann, 1983). Most of the cell lines are obtained from American Type Culture Collection (ATCC) derived from different human cancer types. […] The values for mean +/− SD of data from triplicate wells are calculated. Some parameters for cellular responses can be calculated: GI=growth inhibition, TGI=total growth inhibition (cytostatic effect) and LC=cell killing (cytotoxic effect).
Consider the following compounds; for each one, report its GI50.

Recorded GI50, per entry:
Compound	System Under Test	GI50
C=CCN1[C@@H]2c3c(cc(C)c(OC)c3O)C[C@H]1[C@H](C#N)N1C2[C@@H]2SCC(=O)C(=O)OC[C@H]1c1c3c(c(C)c(OC(C)=O)c12)OCO3 (stereo partly shown)	HMEC1	4.74 µM
C=CCN1[C@@H]2c3c(cc(C)c(OC)c3OCOCCOC)C[C@H]1[C@H](C#N)N1C2CC2(O)C(=O)C(C)=C3OCOC3=C2[C@@H]1COC(=O)[C@H](CSCC1c2ccccc2-c2ccccc21)NC(=O)OC(C)(C)C (stereo partly shown)	HMEC1	2.15 µM
COc1cc2c(cc1O)CCN[C@]21CS[C@@H]2c3c(OC(C)=O)c(C)c4c(c3[C@H](COC1=O)N1C2C2N[C@@H](Cc3cc(C)c(OC)c(O)c32)[C@@H]1C#N)OCO4 (stereo partly shown)	HMEC1	0.000556 µM

Consider the additional compound presented here.
Record C=CCN1[C@@H]2c3c(cc(C)c(OC)c3O)C[C@H]1[C@H](C#N)N1C2[C@@H]2SC[C@]3(NCCc4cc(O)c(OC)cc43)C(=O)OC[C@H]1c1c3c(c(C)c(OC(C)=O)c12)OCO3 (stereo partly shown) , field GI50: 3 µM

====

- System: K-562
- Measurement Notes: Inhibition of cells growth by colorimetric assay (SRB)
- Condition Parameters: Homo sapiens, K562, 48 h, read-out: K562 GI50
Consider the following compounds; for each one, report its log10(GI50).
Please interpret these as log10 of GI50 where GI50 is in nM.

Recorded log10(GI50), per entry:
Compound	Experimental Result
C=CCN1[C@@H]2c3c(cc(C)c(OC)c3O)C[C@H]1[C@H](C#N)N1C2[C@@H]2SC[C@]3(NCCc4c3[nH]c3ccccc43)C(=O)OC[C@H]1c1c3c(c(C)c(OC(C)=O)c12)OCO3 (stereo partly shown) [compound 55]	1.77
C=CCN1[C@@H]2c3c(cc(C)c(OC)c3O)C[C@H]1[C@H](C#N)N1C2[C@@H]2SC[C@]3(NCCc4cc(OC(=O)OC(C)(C)C)c(OC)cc43)C(=O)OC[C@H]1c1c3c(c(C)c(OC(C)=O)c12)OCO3 (stereo partly shown) [compound 44]	0.90
COc1c(C)cc2c(c1O)[C@H]1N[C@@H](C2)[C@H](C#N)N2C1[C@@H]1SC[C@]3(NCCc4c3[nH]c3ccccc43)C(=O)OC[C@H]2c2c3c(c(C)c(OC(C)=O)c21)OCO3 (stereo partly shown) [compound 59]	0.26
C=CCN1[C@@H]2c3c(cc(C)c(OC)c3O)C[C@H]1[C@H](C#N)N1C2[C@@H]2SC[C@]3(NCCc4cc(O)c(OC)cc43)C(=O)OC[C@H]1c1c3c(c(C)c(OC(=O)CCCCCCC)c12)OCO3 (stereo partly shown) [compound 50]	2.95
COc1c(C)cc2c(c1O)[C@H]1N[C@@H](C2)[C@H](O)N2C1[C@@H]1SC[C@]3(NCCc4c3[nH]c3ccc(C)cc43)C(=O)OC[C@H]2c2c3c(c(C)c(OC(C)=O)c21)OCO3 (stereo partly shown) [compound 66]	0.64
COc1ccc2[nH]c3c(c2c1)CCN[C@]31CS[C@@H]2c3c(OC(C)=O)c(C)c4c(c3[C@H](COC1=O)N1C2[C@@H]2N[C@@H](Cc3cc(C)c(OC)c(O)c32)[C@@H]1C#N)OCO4 (stereo partly shown) [compound 60]	-0.09
COc1cc2c(cc1O)CCN[C@]21CS[C@@H]2c3c(OC(C)=O)c(C)c4c(c3[C@H](COC1=O)N1C2C2c3c(cc(C)c(OC)c3O)C[C@@H]([C@@H]1C#N)N2C)OCO4 (stereo partly shown) [Et-770]	0.22
COc1cc2c(cc1O)CCN[C@]21CS[C@@H]2c3c(OC(C)=O)c(C)c4c(c3[C@H](CNC1=O)N1C2[C@H]2c3c(cc(C)c(OC)c3O)CC([C@@H]1O)N2C)OCO4 (stereo partly shown) [compound 77]	1.22

Can you give me log10(GI50) for all of these, one by one?
1. COc1c(C)cc2c(c1OC(=O)/C=C/c1ccccc1)[C@H]1N[C@@H](C2)[C@H](C#N)N2C1[C@@H]1SCC(NC(=O)C(F)(F)F)C(=O)OC[C@H]2c2c3c(c(C)c(OC(C)=O)c21)OCO3 (stereo partly shown) [compound 34]
2. COc1c(C)cc2c(c1O)[C@H]1N[C@@H](C2)[C@H](O)N2C1[C@@H]1SC[C@]3(NCCc4c3[nH]c3ccc(O)cc43)C(=O)OC[C@H]2c2c3c(c(C)c(OC(C)=O)c21)OCO3 (stereo partly shown) [compound 65]
3. COC1=C(C)C(=O)C2=C(C1=O)[C@@H]1C3[C@@H]4SC[C@]5(NCCc6c5[nH]c5ccccc65)C(=O)OC[C@@H](c5c6c(c(C)c(OC(C)=O)c54)OCO6)N3[C@@H](O)[C@H](C2)N1C (stereo partly shown) [ET-736-quinone]
4. CCC(=O)NC1CS[C@@H]2c3c(OC(C)=O)c(C)c4c(c3[C@H](COC1=O)N1C2[C@@H]2N[C@@H](Cc3cc(C)c(OC)c(O)c32)[C@@H]1C#N)OCO4 (stereo partly shown) [compound 33]

Output line:
1. 1.21
2. 0.09
3. 0.70
4. 0.74
